# Test system: Staphylococcus epidermidis
# procedure summary: Antibacterial activity against Staphylococcus epidermidis 40004
# Type: functional
Each entry below carries its recorded MIC.
Units required after the number.

Below are worked cases with known answers.
structure notation | property name | readout value
C=CCN1C(=O)/C(=C/c2cc(C)n(-c3cccc(C(=O)O)c3)c2C)SC1=S | MIC | 50 µg/mL
C=CCN1C(=O)/C(=C/c2cccc(-c3cccc(C(=O)O)c3)c2)SC1=S | MIC | 50 µg/mL
C=CCN1C(=O)/C(=C/c2ccc(-c3ccc(C(=O)O)c(Cl)c3)o2)SC1=S | MIC | 6.25 µg/mL
C=CCN1C(=O)/C(=C/c2ccc(-c3ccc(C(=O)O)cc3)o2)SC1=S | MIC | 6.25 µg/mL
C=CCN1C(=O)/C(=C/c2ccc(-c3ccc(O)cc3)o2)SC1=S | MIC | 12.5 µg/mL

Exercise: // lookup MIC for C=CCN1C(=O)/C(=C/c2c[nH]c3c(C(=O)O)cccc23)SC1=S
Solution: 25 µg/mL

Exercise: // lookup MIC for C=CCN1C(=O)/C(=C/c2ccc(-c3ccc(CCC(=O)O)cc3)o2)SC1=S
Solution: 25 µg/mL

Exercise: // lookup MIC for C=CCN1C(=O)/C(=C/c2ccc(-c3cccc(C(=O)O)c3)o2)SC1=S
Solution: 25 µg/mL

* * *

# Tested on: Streptococcus pneumoniae
# procedure summary: Antibacterial activity against Streptococcus pneumoniae CIP 103566
# Assay type: functional
Each entry below carries its recorded MIC.
Please state the figure in µg/mL; there is no need to write the unit.

structure notation | unit annotation | readout value
C=CCN1C(=O)/C(=C/c2c[nH]c3c(C(=O)O)cccc23)SC1=S | µg/mL | 50
C=CCN1C(=O)/C(=C/c2ccc(-c3ccc(O)cc3)o2)SC1=S | µg/mL | 25
C=CCN1C(=O)/C(=C/c2cc(C)n(-c3cccc(C(=O)O)c3)c2C)SC1=S | µg/mL | 25
C=CCN1C(=O)/C(=C/c2ccc(-c3ccc(C(=O)NO)cc3)o2)SC1=S | µg/mL | 25
C=CCN1C(=O)/C(=C/c2ccc(-c3ccc(C(=O)O)c(Cl)c3)o2)SC1=S | µg/mL | 12.5

Exercise: // lookup MIC for C=CCN1C(=O)/C(=C/c2ccc(-c3cccc(C(=O)O)c3)o2)SC1=S
Solution: 50

* * *

# Test system: Bacillus anthracis
# procedure summary: Antibacterial activity against Bacillus anthracis 9131
# Type: functional
Each entry below carries its recorded MIC.

Below are worked cases with known answers.
structure notation | measured on | MIC
C=CCN1C(=O)/C(=C/c2ccc(-c3ccc(CCC(=O)O)cc3)o2)SC1=S | Bacillus anthracis | 12.5 µg/mL
C=CCN1C(=O)/C(=C/c2cc(C)n(-c3cccc(C(=O)O)c3)c2C)SC1=S | Bacillus anthracis | 6.25 µg/mL
C=CCN1C(=O)/C(=C/c2ccc(-c3cccc(C(=O)O)c3)o2)SC1=S | Bacillus anthracis | 6.25 µg/mL
C=CCN1C(=O)/C(=C/c2c[nH]c3c(C(=O)O)cccc23)SC1=S | Bacillus anthracis | 12.5 µg/mL

Exercise: // lookup MIC for C=CCN1C(=O)/C(=C/c2ccc(-c3ccc(C(=O)O)c(Cl)c3)o2)SC1=S
Solution: 3.13 µg/mL

* * *

Each entry below carries its recorded MIC.
# System: Staphylococcus epidermidis
# procedure summary: Antibacterial activity against Staphylococcus epidermidis 48155
# Assay type: functional
Please state the figure in µg/mL; there is no need to write the unit.

Below are worked cases with known answers.
structure notation | measured on | unit annotation | MIC
C=CCN1C(=O)/C(=C/c2c[nH]c3c(C(=O)O)cccc23)SC1=S | Staphylococcus epidermidis | µg/mL | 25
C=CCN1C(=O)/C(=C/c2cc(C)n(-c3cccc(C(=O)O)c3)c2C)SC1=S | Staphylococcus epidermidis | µg/mL | 25
C=CCN1C(=O)/C(=C/c2ccc(-c3ccc(O)cc3)o2)SC1=S | Staphylococcus epidermidis | µg/mL | 12.5
C=CCN1C(=O)/C(=C/c2cccc(-c3cccc(C(=O)O)c3)c2)SC1=S | Staphylococcus epidermidis | µg/mL | 50

Exercise: // lookup MIC for C=CCN1C(=O)/C(=C/c2ccc(-c3ccc(CCC(=O)O)cc3)o2)SC1=S
Solution: 12.5

* * *

# Test system: Bacillus anthracis
# procedure summary: Antibacterial activity against Bacillus anthracis 9131
# Type: functional
Each entry below carries its recorded MIC.
Please state the figure in µg/mL; there is no need to write the unit.

Below are worked cases with known answers.
structure notation | MIC (µg/mL)
C=CCN1C(=O)/C(=C/c2ccc(-c3ccccc3)o2)SC1=S | 0.78
C=CCN1C(=O)/C(=C/c2ccc(-c3ccc(C(=O)NO)cc3)o2)SC1=S | 50
C=CCN1C(=O)/C(=C/c2cccc(-c3cccc(C(=O)O)c3)c2)SC1=S | 12.5
C=CCN1C(=O)/C(=C/c2ccc(-c3ccc(O)cc3)o2)SC1=S | 6.25
C=CCN1C(=O)/C(=C/c2ccc(-c3ccc(C(N)=O)cc3)o2)SC1=S | 12.5

Now consider the entry below.
Exercise: // lookup MIC for C=CCN1C(=O)/C(=C/c2ccc(-c3ccc(C(=O)O)cc3)o2)SC1=S
Solution: 3.13

* * *

# System: Streptococcus pneumoniae
# procedure summary: Antibacterial activity against Streptococcus pneumoniae CIP 103566
# Assay type: functional
Each entry below carries its recorded MIC.

Below are worked cases with known answers.
structure notation | measured on | MIC
C=CCN1C(=O)/C(=C/c2ccc(-c3ccc(C(=O)O)cc3)o2)SC1=S | Streptococcus pneumoniae | ≥ 100 µg/mL
C=CCN1C(=O)/C(=C/c2ccc(-c3ccc(C(N)=O)cc3)o2)SC1=S | Streptococcus pneumoniae | ≥ 100 µg/mL
C=CCN1C(=O)/C(=C/c2cccc(-c3cccc(C(=O)O)c3)c2)SC1=S | Streptococcus pneumoniae | ≥ 100 µg/mL
C=CCN1C(=O)/C(=C/c2ccc(-c3ccc(CCC(=O)O)cc3)o2)SC1=S | Streptococcus pneumoniae | ≥ 100 µg/mL

Exercise: Lookup: MIC / Streptococcus pneumoniae / C=CCN1C(=O)/C(=C/c2ccc(-c3ccccc3)o2)SC1=S
Solution: ≥ 100 µg/mL

* * *

Each entry below carries its recorded MIC.
# Test system: Staphylococcus epidermidis
# procedure summary: Antibacterial activity against Staphylococcus epidermidis 48155
# Type: functional
Please state the figure in µg/mL; there is no need to write the unit.

Below are worked cases with known answers.
structure notation | MIC (µg/mL)
C=CCN1C(=O)/C(=C/c2ccc(-c3ccc(C(=O)O)c(Cl)c3)o2)SC1=S | 12.5
C=CCN1C(=O)/C(=C/c2ccc(-c3cccc(C(=O)O)c3)o2)SC1=S | 25

Now consider the entry below.
Exercise: // lookup MIC for C=CCN1C(=O)/C(=C/c2ccc(-c3ccc(C(=O)O)cc3)o2)SC1=S
Solution: 3.13

This collection of values is drawn from ChEMBL document CHEMBL1148734.
